method: in vivo pharmacokinetics of taurine formulations in rats
particulars: rat, oral, read-out: bioavailability (BA)
measuredParameter: bioavailability (%)

cpdSmiles: NCCS(=O)(=O)O
measuredParameter: bioavailability
obsValue: 18
